pIC50 values, listed per item
- Tested on: 328373-195-R-J1-PDC complex spheroids, viability % test/control
- Assay procedure: Anticancer human tumor 328373-195-R-J1-PDC patient-derived head and neck squamous carcinoma cell line growth inhibition [CLK]
- Test conditions: curve of first compound; second compound 0.0316 µM
pIC50: −log10 of the molar value.
Property label: pIC50

[[record]]
compound = "NC(=O)C(=Cn1cnc(-c2cc(C(F)(F)F)cc(C(F)(F)F)c2)n1)c1cncnc1 + CNC(=O)c1ccc(Nc2nc(OC3CCCC3)c3c(-c4ccc5nc(C)oc5c4)c[nH]c3n2)c(OC)c1"
recorded_value = "> 8.02"

[[record]]
compound = "O=C(c1cc(Cc2n[nH]c(=O)c3ccccc23)ccc1F)N1CCN(C(=O)C2CC2)CC1 + CN1CCN(c2cc(C(=O)Nc3cc4cc(-c5cnn(C)c5)ccc4cn3)ccn2)CC1"
recorded_value = "< 5.00"

[[record]]
compound = "CC(Nc1ccc2c(c1)OCCn1cc(N3C(=O)OCC3C(F)F)nc1-2)C(N)=O (stereo unspecified) + CN1CCN(c2cc(C(=O)Nc3cc4cc(-c5cnn(C)c5)ccc4cn3)ccn2)CC1"
recorded_value = "< 5.00"

[[record]]
compound = "Nc1ccn(C2OC(CO)C(O)C2(F)F)c(=O)n1 (stereo unspecified) + CN1CCN(c2cc(C(=O)Nc3cc4cc(-c5cnn(C)c5)ccc4cn3)ccn2)CC1"
recorded_value = "> 7.50"

[[record]]
compound = "COc1cccc2c1C(=O)c1c(O)c3c(c(O)c1C2=O)CC(O)(C(=O)CO)CC3OC1CC(N)C(O)C(C)O1 (stereo unspecified) + CNC(=O)c1ccc(Nc2nc(OC3CCCC3)c3c(-c4ccc5nc(C)oc5c4)c[nH]c3n2)c(OC)c1"
recorded_value = "> 7.50"

[[record]]
compound = "CC(=O)O[C@H]1C(=O)[C@@]2(C)[C@H]([C@H](OC(=O)c3ccccc3)[C@]3(O)C[C@H](OC(=O)[C@H](O)[C@@H](NC(=O)c4ccccc4)c4ccccc4)C(C)=C1C3(C)C)[C@]1(OC(C)=O)CO[C@@H]1C[C@@H]2O + CNC(=O)c1ccc(Nc2nc(OC3CCCC3)c3c(-c4ccc5nc(C)oc5c4)c[nH]c3n2)c(OC)c1"
recorded_value = "> 7.50"


---

- Test system: 328373-195-R-J1-PDC complex spheroids, viability % test/control
- Assay procedure: Anticancer human tumor 328373-195-R-J1-PDC cell line growth inhibition [CLK];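 note: spheroids exposed to the agents for 7 days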
- Test conditions: curve of first compound; second compound 3.16 µM
- From the text: A high-throughput screen of multi-cell type tumor spheroids was designed to identify active combinations of […] and targeted small molecules. Complex spheroids include a stromal component modeled by human endothelial cells (HUVEC) and fibroblasts modeled by human mesenchymal stem cells (MSCs). […] Compounds. […] If the clinical Cmax for an agent had not been determined, the highest concentration tested was 10 microM. […]
Overview of recorded IC50 for various compounds
Property label: IC50

[[record]]
compound = "CCCS(=O)(=O)Nc1ccc(F)c(C(=O)c2c[nH]c3ncc(-c4ccc(Cl)cc4)cc23)c1F + CNC(=O)c1ccc(Nc2nc(OC3CCCC3)c3c(-c4ccc5nc(C)oc5c4)c[nH]c3n2)c(OC)c1"
recorded_value = "< 31.6 nM"

[[record]]
compound = "C=CC(=O)N1CCN(c2nc(=O)n(-c3c(C)ccnc3C(C)C)c3nc(-c4c(O)cccc4F)c(F)cc23)C(C)C1 (stereo not drawn) + CN1CCN(c2cc(C(=O)Nc3cc4cc(-c5cnn(C)c5)ccc4cn3)ccn2)CC1"
recorded_value = "< 31.6 nM"

[[record]]
compound = "CCN1CCN(Cc2ccc(Nc3ncc(F)c(-c4cc(F)c5nc(C)n(C(C)C)c5c4)n3)nc2)CC1 + CN1CCN(c2cc(C(=O)Nc3cc4cc(-c5cnn(C)c5)ccc4cn3)ccn2)CC1"
recorded_value = "< 3.16 nM"

[[record]]
compound = "CCc1c2c(nc3ccc(O)cc13)-c1cc3c(c(=O)n1C2)COC(=O)[C@]3(O)CC + CNC(=O)c1ccc(Nc2nc(OC3CCCC3)c3c(-c4ccc5nc(C)oc5c4)c[nH]c3n2)c(OC)c1"
recorded_value = "< 3.16 nM"

[[record]]
compound = "COc1c(OCCCN2CCOCC2)ccc2c3n(c(=NC(=O)c4cnc(N)nc4)nc12)CCN3 + CNC(=O)c1ccc(Nc2nc(OC3CCCC3)c3c(-c4ccc5nc(C)oc5c4)c[nH]c3n2)c(OC)c1"
recorded_value = "< 3.16 nM"

[[record]]
compound = "NC(=O)C(=Cn1cnc(-c2cc(C(F)(F)F)cc(C(F)(F)F)c2)n1)c1cncnc1 + CN1CCN(c2cc(C(=O)Nc3cc4cc(-c5cnn(C)c5)ccc4cn3)ccn2)CC1"
recorded_value = "< 9.49 nM"

[[record]]
compound = "O=C(c1cc(Cc2n[nH]c(=O)c3ccccc23)ccc1F)N1CCN(C(=O)C2CC2)CC1 + CNC(=O)c1ccc(Nc2nc(OC3CCCC3)c3c(-c4ccc5nc(C)oc5c4)c[nH]c3n2)c(OC)c1"
recorded_value = "< 31.6 nM"

[[record]]
compound = "CC(=O)O[C@H]1C(=O)[C@@]2(C)[C@H]([C@H](OC(=O)c3ccccc3)[C@]3(O)C[C@H](OC(=O)[C@H](O)[C@@H](NC(=O)c4ccccc4)c4ccccc4)C(C)=C1C3(C)C)[C@]1(OC(C)=O)CO[C@@H]1C[C@@H]2O + CNC(=O)c1ccc(Nc2nc(OC3CCCC3)c3c(-c4ccc5nc(C)oc5c4)c[nH]c3n2)c(OC)c1"
recorded_value = "< 31.6 nM"

[[record]]
compound = "CC(Nc1ccc2c(c1)OCCn1cc(N3C(=O)OCC3C(F)F)nc1-2)C(N)=O (stereo not drawn) + CN1CCN(c2cc(C(=O)Nc3cc4cc(-c5cnn(C)c5)ccc4cn3)ccn2)CC1"
recorded_value = "< 31.6 nM"

[[record]]
compound = "Cn1ncnc1[C@H]1c2n[nH]c(=O)c3cc(F)cc(c23)N[C@@H]1c1ccc(F)cc1 + CN1CCN(c2cc(C(=O)Nc3cc4cc(-c5cnn(C)c5)ccc4cn3)ccn2)CC1"
recorded_value = "< 0.316 nM"

[[record]]
compound = "NC(=O)C(=Cn1cnc(-c2cc(C(F)(F)F)cc(C(F)(F)F)c2)n1)c1cncnc1 + CNC(=O)c1ccc(Nc2nc(OC3CCCC3)c3c(-c4ccc5nc(C)oc5c4)c[nH]c3n2)c(OC)c1"
recorded_value = "< 9.49 nM"

[[record]]
compound = "CCc1c2c(nc3ccc(O)cc13)-c1cc3c(c(=O)n1C2)COC(=O)[C@]3(O)CC + CN1CCN(c2cc(C(=O)Nc3cc4cc(-c5cnn(C)c5)ccc4cn3)ccn2)CC1"
recorded_value = "< 3.16 nM"

[[record]]
compound = "C#Cc1c(F)ccc2cc(O)cc(-c3ncc4c(N5CC6CCC(C5)N6)nc(OCC56CCCN5CC(F)C6)nc4c3F)c12 (stereo not drawn) + CNC(=O)c1ccc(Nc2nc(OC3CCCC3)c3c(-c4ccc5nc(C)oc5c4)c[nH]c3n2)c(OC)c1"
recorded_value = "< 31.6 nM"

